- assay-name: prediction of CLt,human by multispecies allometric scaling, rule of exponent
- experimental-conditions: from CLt in rats, monkeys and dogs
outcome-measure: Predicted CLt,human, ROE (mL/min/kg)
Express it in mL/min/kg; write the number only.

# molecule, readout-units, Predicted CLt,human, ROE
rows = [
    ("Nc1ccc(S(=O)(=O)c2ccc(N)cc2)cc1", "mL/min/kg", 0.91),
    ("COc1ccc2cc([C@H](C)C(=O)O)ccc2c1 [(S)‐Naproxen]", "mL/min/kg", 0.051),
    ("CN1C(C(=O)Nc2ccccn2)=C(O)c2sccc2S1(=O)=O", "mL/min/kg", 0.029),
    ("CCOc1ccccc1OC(c1ccccc1)C1CNCCO1 (stereo not drawn)", "mL/min/kg", 9.52),
    ("Cc1cc(=O)n(-c2ccccc2)n1C [Antipyrine]", "mL/min/kg", 3.32),
]

Recall and state the measured Predicted CLt,human, ROE for CC(C)N(CCC(C(N)=O)(c1ccccc1)c1ccccn1)C(C)C (stereo not drawn) [Disopyramide] . 7.36

====

- assay-name: prediction of CLt,human by single-species allometric scaling from PXB-mice
- Design: species or system humans
- experimental-conditions: predicted/observed CLt,human
# Fold error (predicted/observed), PXB‐SSS per record follows
Format: numeric value only, no unit, no commentary.

# compound, Fold error (predicted/observed), PXB‐SSS
data = [
    ("CC(C)(C)NC[C@H](O)COc1nsnc1N1CCOCC1 [Timolol]", 1.98),
    ("CCNC(=O)OC1CCN(c2nncc3cc(OC)c(OC)cc23)CC1 [Carbazeran]", 0.34),
    ("Cc1cc(=O)n(-c2ccccc2)n1C [Antipyrine]", 0.92),
    ("CN[C@@H]1C[C@H]2O[C@@](C)([C@@H]1OC)n1c3ccccc3c3c4c(c5c6ccccc6n2c5c31)C(=O)N[C@H]4O [UCN−01, 7‐hydroxystaurosporine]", 1.35),
]

Shifting focus to the compound that follows.
Using known records, supply Fold error (predicted/observed), PXB‐SSS for CN1C(C(=O)Nc2ccccn2)=C(O)c2sccc2S1(=O)=O [Tenoxicam] 1.29

====

- assay-name: prediction of CLt,human by multispecies allometric scaling, rule of exponent
- experimental-conditions: predicted/observed CLt,human
Fold error (predicted/observed), ROE for assorted compounds
Respond numerically, and do not add a unit to the figure.

Below, each entry is followed by its recorded Fold error (predicted/observed), ROE result.
# compound, outcome-measure, observed-measurement
records = [
    ("CCNC(=O)OC1CCN(c2nncc3cc(OC)c(OC)cc23)CC1 [Carbazeran]", "Fold error (predicted/observed), ROE", 0.23),
    ("CN1C(C(=O)Nc2ccccn2)=C(O)c2sccc2S1(=O)=O [Tenoxicam]", "Fold error (predicted/observed), ROE", 0.98),
    ("Cc1cc(=O)n(-c2ccccc2)n1C [Antipyrine]", "Fold error (predicted/observed), ROE", 5.19),
]

Moving on to another compound below.
Supply recorded Fold error (predicted/observed), ROE for CN[C@@H]1C[C@H]2O[C@@](C)([C@@H]1OC)n1c3ccccc3c3c4c(c5c6ccccc6n2c5c31)C(=O)N[C@H]4O [UCN−01, 7‐hydroxystaurosporine] here. 422.70

====

- assay-name: prediction of CLt,human by physiologically based scaling using PXB-mice
- Design: species or system humans
- experimental-conditions: from CLt in PXB-mice, dispersion model, CLint per hepatocyte assumed equal
outcome-measure: Predicted CLt,human, PXB‐PBS

# molecule, outcome-measure, observed-measurement
measured = [
    ("CCNC(=O)OC1CCN(c2nncc3cc(OC)c(OC)cc23)CC1", "Predicted CLt,human, PXB‐PBS", "16.4 mL/min/kg"),
]

Attention now shifts to the item below.
Consider the molecule CCCCNC(=O)NS(=O)(=O)c1ccc(C)cc1 [Tolbutamide] and give its recorded Predicted CLt,human, PXB‐PBS. 0.088 mL/min/kg

====

- assay-name: prediction of CLt,human by physiologically based scaling using PXB-mice
- Parameters: species or system humans
- experimental-conditions: predicted/observed CLt,human
Note to self: use true (1) only for Fold error (predicted/observed), PXB‐PBS readings below 1; a reading exactly at 1 still gets false (0).

Solved cases (3 shown):
# compound, cat
measured = [
    ("CCNC(=O)OC1CCN(c2nncc3cc(OC)c(OC)cc23)CC1", "true (1)"),
    ("CN1C(C(=O)Nc2ccccn2)=C(O)c2sccc2S1(=O)=O", "false (0)"),
    ("CC(C)(C)NC[C@H](O)COc1nsnc1N1CCOCC1", "false (0)"),
]

Field: below-cutoff. Rule: recorded Fold error (predicted/observed), PXB‐PBS strictly less than 1. Subject: CN[C@@H]1C[C@H]2O[C@@](C)([C@@H]1OC)n1c3ccccc3c3c4c(c5c6ccccc6n2c5c31)C(=O)N[C@H]4O [UCN−01, 7‐hydroxystaurosporine] false (0)

I'd appreciate it if you could check whether Cc1cc(=O)n(-c2ccccc2)n1C [Antipyrine] has Fold error (predicted/observed), PXB‐PBS smaller than 1. false (0)

====

- assay-name: total clearance after intravenous administration to rats
- Format: in vivo, Sprague–Dawley rats
- experimental-conditions: intravenous cassette dose 0.1 mg/kg, N = 3
Catalogue of CLt, Rats values
Reply with just the number (in mL/min/kg).

# molecule, readout-units, CLt, Rats
records = [
    ("CCCCNC(=O)NS(=O)(=O)c1ccc(C)cc1 [Tolbutamide]", "mL/min/kg", 0.39),
    ("Cc1cc(=O)n(-c2ccccc2)n1C [Antipyrine]", "mL/min/kg", 7.86),
]

# evaluate next
# return recorded CLt, Rats for entry Nc1ccc(S(=O)(=O)c2ccc(N)cc2)cc1 [Dapsone] 6.87

====

- assay-name: prediction of CLt,human by physiologically based scaling using PXB-mice
- Set-up: species or system humans
- experimental-conditions: from CLt in PXB-mice, dispersion model, CLint per hepatocyte assumed equal
Recorded Predicted CLt,human, PXB‐PBS values for a group of compounds are listed next.
API: value field is a number in mL/min/kg; no unit string.

A selection of reference data follows.
# compound, Predicted CLt,human, PXB‐PBS / mL/min/kg
measured = [
    ("CC(C)N(CCC(C(N)=O)(c1ccccc1)c1ccccn1)C(C)C (stereo not shown) [Disopyramide]", 4.63),
    ("CCOc1ccccc1OC(c1ccccc1)C1CNCCO1 (stereo not shown)", 2.79),
    ("Cc1cc(=O)n(-c2ccccc2)n1C [Antipyrine]", 0.71),
    ("Nc1ccc(S(=O)(=O)c2ccc(N)cc2)cc1", 0.67),
    ("CN[C@@H]1C[C@H]2O[C@@](C)([C@@H]1OC)n1c3ccccc3c3c4c(c5c6ccccc6n2c5c31)C(=O)N[C@H]4O [UCN−01, 7‐hydroxystaurosporine]", 0.0056),
]

// Input: `CN1C(=O)CN=C(c2ccccc2)c2cc(Cl)ccc21` . Output its Predicted CLt,human, PXB‐PBS only. 7.52

Hello, please tell me recorded Predicted CLt,human, PXB‐PBS for this one: `CN1C(C(=O)Nc2ccccn2)=C(O)c2sccc2S1(=O)=O` 0.044
